# Assay Target: SapA (Haemophilus influenzae)
# Construct: residues 33 to 560, without the predicted signal peptide
# Sequence (Q4QL73 entry or part of it): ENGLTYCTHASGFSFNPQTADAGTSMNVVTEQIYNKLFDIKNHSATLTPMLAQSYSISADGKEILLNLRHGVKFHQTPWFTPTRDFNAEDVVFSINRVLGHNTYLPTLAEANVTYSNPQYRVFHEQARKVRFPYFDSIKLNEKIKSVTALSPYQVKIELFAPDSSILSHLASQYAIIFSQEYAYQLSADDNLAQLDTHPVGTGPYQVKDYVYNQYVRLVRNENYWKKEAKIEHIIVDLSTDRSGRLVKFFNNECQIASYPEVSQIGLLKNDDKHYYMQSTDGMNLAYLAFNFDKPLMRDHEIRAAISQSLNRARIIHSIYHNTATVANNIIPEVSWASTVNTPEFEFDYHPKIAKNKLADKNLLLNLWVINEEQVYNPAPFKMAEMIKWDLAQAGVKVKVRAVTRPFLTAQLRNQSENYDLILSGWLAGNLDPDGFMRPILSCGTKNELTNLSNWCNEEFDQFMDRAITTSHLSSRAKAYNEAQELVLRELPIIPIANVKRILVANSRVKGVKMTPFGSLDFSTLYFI
# Run Description: ITC (stoichiometry fixed to […]), crystal structure by hemin soaking ([…] Å), native PAGE shift
# Assay type: binding
Readout: pKd
Answer as the number alone; pKd is minus log10 of concentration in mol/L.

Return reported pKd; argument: C=CC1=C(C)C2=Cc3c(C=C)c(C)c4[n]3[Fe][n]3c(c(C)c(CCC(=O)O)c3=CC3=NC(=C4)C(C)=C3CCC(=O)O)=CC1=N2 [heme]
3.55

The origin of these recorded values is paper PMC8519434.
